Answer each item with its documented pest or weed control at 125 g/ha.
- Test system: barnyardgrass (Echinochloa crus-galli)
- experimental.details: Test A preemergence, directed soil spray, visual injury rating
- Type: in vivo
- condition.info: Echinochloa crus-galli, pre-emergence, 240 h, 125 g ai/ha, 0 is no effect, 100 is complete control, read-out: Plant response rating (0 to 100 scale), Barnyardgrass
Answers are plain numbers, in %.

Observe how each entry below is paired with its result.
Ask: Quick check: pest or weed control at 125 g/ha of `Cc1cc2cccc(-c3c(O)c(C)nn(C)c3=O)c2o1` ?
Result: 0

Ask: Try the compound `Cc1nn(C)c(=O)c(-c2ccc(F)c3ccoc23)c1O`
Result: 20

Ask: Note, next up: `Cc1nn(C)c(=O)c(-c2cccc3snc(C)c23)c1O`
Result: 0

# map each compound to its pest or weed control at 125 g/ha
1. CCOC(=O)Oc1c(C)nn(C)c(=O)c1-c1c(C)ccc2sccc12
2. Cn1nc(Cl)c(O)c(-c2nccc3ccccc23)c1=O

Result:
1: 0; 2: 0

---

- Tested on: pigweed (Amaranthus retroflexus)
- experimental.details: Test A preemergence, directed soil spray, visual injury rating
- Type: in vivo
- condition.info: 31 g ai/ha, 0 is no effect, 100 is complete control
Field: Plant response rating (0 to 100 scale), Pigweed. Provide a value for each of the compounds that follow.
One number for each entry.

Example entries begin here.
Ask: // lookup Plant response rating (0 to 100 scale), Pigweed | system=pigweed (Amaranthus retroflexus) | key= `CCC(=O)Oc1c(C)nn(C)c(=O)c1-c1c(Br)ccc2c1cnn2C`
Result: 0

Ask: Also check `Cn1nc(Cl)c(O)c(-c2cccc3c2nnn3C)c1=O`
Result: 0

Ask: Moving on to the next compound: `Cc1nn(C)c(=O)c(-c2ccc(Cl)c3sc(Br)cc23)c1O`
Result: 0

# evaluate next
Ask: Plant response rating (0 to 100 scale), Pigweed of `Cc1cc2ccc(C(F)(F)F)c(-c3c(O)c(C)nn(C)c3=O)c2o1` on pigweed (Amaranthus retroflexus)?
Result: 30

---

- Tested on: foxtail, giant (giant foxtail, Setaria faberii)
- experimental.details: Test A postemergence application, visual injury rating
- Type: in vivo
- condition.info: 125 g ai/ha, 0 to 100 scale, 0 no effect, 100 complete control
Field: Foxtail, Giant plant response rating. Provide a value for each of the compounds that follow.
Answers are plain numbers.

Ask: What value of Foxtail, Giant plant response rating on foxtail, giant (giant foxtail, Setaria faberii) does COC(=O)Oc1c(C)nn(C)c(=O)c1-c1cccc2cc(C)oc12 [Compound 28] have?
Result: 20

Ask: Now consider CC(=O)Oc1c(C)nn(C)c(=O)c1-c1ccc(Cl)c2cc(C)oc12 [Compound 42] .
Result: 30

Ask: Queued: COC(=O)Oc1c(C)nn(C)c(=O)c1-c1ccc(Cl)c2cc(C)oc12 [Compound 40]
Result: 20

Ask: And then CCC(=O)Oc1c(C)nn(C)c(=O)c1-c1cccc2sccc12 [Compound 4] , what is it?
Result: 0

Ask: Same again, this time with Cc1ccc2sc(Cl)cc2c1-c1c(O)c(C)nn(C)c1=O [Compound 46]
Result: 90

Ask: Here is the next compound: COC(=O)Oc1c(C)nn(C)c(=O)c1-c1ccc(Cl)c2ccsc12 [Compound 50]
Result: 0

Ask: Thanks! And CCOC(=O)Oc1c(C)nn(C)c(=O)c1-c1c(C)sc2ncccc12 [Compound 24] ?
Result: 0

Ask: // query: Cc1nn(C)c(=O)c(-c2ccc(Cl)c3sc(Br)cc23)c1O [Compound 37]
Result: 0

We now examine a further compound.
Ask: # get_value(readout= Foxtail, Giant plant response rating, system= foxtail, giant (giant foxtail, Setaria faberii)) for CCOC(=O)Oc1c(C)nn(C)c(=O)c1-c1c(C)sc2ncc(C)cc12 [Compound 2]
Result: 0

---

- Tested on: foxtail, giant (giant foxtail, Setaria faberii)
- experimental.details: Test A preemergence, directed soil spray, visual injury rating
- Assay type: in vivo
- condition.info: 31 g ai/ha, 0 is no effect, 100 is complete control
measurement.type: Plant response rating (0 to 100 scale), Foxtail, Giant
Give bare numbers.

In the examples that follow, each entry is paired with its recorded Plant response rating (0 to 100 scale), Foxtail, Giant.
Ask: Suppose we examine the compound `COC(=O)Oc1c(C)nn(C)c(=O)c1-c1c(C)ccc2cc(C)oc12` ; what Plant response rating (0 to 100 scale), Foxtail, Giant value has been reported?
Result: 0

Ask: And `CC(=O)Oc1c(C)nn(C)c(=O)c1-c1ccc(Cl)c2ccsc12` ?
Result: 0

Ask: Then what about the compound `CC(=O)Oc1c(Cl)nn(C)c(=O)c1-c1cccc2cccnc12` ?
Result: 0

State recorded Plant response rating (0 to 100 scale), Foxtail, Giant for all listed compounds.
1. Cn1nc(Cl)c(O)c(-c2ccc(F)c3ccoc23)c1=O
2. Cc1nn(C)c(=O)c(-c2ccc(Cl)c3ccsc23)c1O
3. Cc1cc2c(Cl)ccc(-c3c(O)c(C)nn(C)c3=O)c2o1
4. CCC(=O)Oc1c(C)nn(C)c(=O)c1-c1cccc2cc(C)oc12
5. CCC(=O)Oc1c(C)nn(C)c(=O)c1-c1ccc(Cl)c2sccc12
6. CC(=O)Oc1c(C)nn(C)c(=O)c1-c1ccc(Cl)c2cc(C)oc12
7. CC(=O)Oc1c(Cl)nn(C)c(=O)c1-c1nccc2ccccc12

Result:
1: 10; 2: 0; 3: 10; 4: 0; 5: 20; 6: 10; 7: 0

---

- System: blackgrass (Alopecurus myosuroides)
- experimental.details: Test A postemergence application, visual injury rating
- Assay type: in vivo
- condition.info: Alopecurus myosuroides, post-emergence, 240 h, 125 g ai/ha, 0 to 100 scale, 0 no effect, 100 complete control, read-out: Blackgrass plant response rating
Could you please report measured pest or weed control at 125 g/ha for the items listed next?
Answers are plain numbers, in %.

Worked cases, pest or weed control at 125 g/ha given:
Ask: Provide value of pest or weed control at 125 g/ha for this record tested with blackgrass (Alopecurus myosuroides): `Cn1nc(Cl)c(O)c(-c2nccc3ccccc23)c1=O`
Result: 0

Ask: Let us now turn to `Cc1nn(C)c(=O)c(-c2ccc(F)c3ccoc23)c1O`
Result: 60

Ask: Here is the next compound: `CC(=O)Oc1c(C)nn(C)c(=O)c1-c1cccc2cc(C)oc12`
Result: 60

Ask: What about `CCOC(=O)Oc1c(C)nn(C)c(=O)c1-c1c(C)ccc2sccc12` ?
Result: 40

Ask: Next entry: `Cc1nn(C)c(=O)c(-c2cccc3snc(C)c23)c1O`
Result: 20

Lab note: each compound below needs its pest or weed control at 125 g/ha filled in.
1. COc1c(C)nn(C)c(=O)c1-c1ccc(F)c2ccoc12
2. Cc1ccc2sccc2c1-c1c(O)c(C)nn(C)c1=O
3. Cc1cc2cccc(-c3c(O)c(C)nn(C)c3=O)c2o1
4. CC(=O)Oc1c(C)nn(C)c(=O)c1-c1c(C)ccc2cc(C)oc12
5. Cc1cc2ccc(C)c(-c3c(O)c(C)nn(C)c3=O)c2o1

Result:
[0, 70, 40, 60, 60]

---

- Test system: ragweed (common ragweed, Ambrosia elatior)
- experimental.details: Test A postemergence application, visual injury rating
- Type: in vivo
- condition.info: Ambrosia artemisiifolia, post-emergence, 240 h, 125 g ai/ha, 0 to 100 scale, 0 no effect, 100 complete control, read-out: Ragweed plant response rating
Answer each item with its documented pest or weed control at 125 g/ha.
One number for each entry, in %.

Reference set (4 entries):
Ask: I'd like to know its pest or weed control at 125 g/ha. The compound in question is `Cn1nc(Cl)c(O)c(-c2nccc3ccccc23)c1=O`
Result: 10

Ask: Then this compound: `COc1c(C)nn(C)c(=O)c1-c1ccc(F)c2ccoc12`
Result: 0

Ask: Then `Cc1cc2ccc(C)c(-c3c(O)c(C)nn(C)c3=O)c2o1` ?
Result: 100

Ask: Also need `CC(=O)Oc1c(C)nn(C)c(=O)c1-c1c(C)ccc2cc(C)oc12` , thanks.
Result: 100

Lab note: next compound to report on.
Ask: Sample `CC(=O)Oc1c(C)nn(C)c(=O)c1-c1cccc2cc(C)oc12` — what was its pest or weed control at 125 g/ha?
Result: 50

---

Could you please report measured pest or weed control at 500 g/ha for the items listed next?
- Tested on: ragweed (common ragweed, Ambrosia elatior)
- experimental.details: Test A preemergence, directed soil spray, visual injury rating
- Type: in vivo
- condition.info: Ambrosia artemisiifolia, pre-emergence, 240 h, 500 g ai/ha, 0 is no effect, 100 is complete control, read-out: Plant response rating (0 to 100 scale), Ragweed
Give bare numbers, in %.

For orientation, consider the following solved cases.
Ask: Item Cc1cc2ccc(C)c(-c3c(O)c(C)nn(C)c3=O)c2o1 [Compound 10] has what recorded pest or weed control at 500 g/ha?
Result: 90

Ask: Proceed to CC(=O)Oc1c(C)nn(C)c(=O)c1-c1cccc2cc(C)oc12 [Compound 13]
Result: 80

Ask: Entry to check: Cc1ccc2sccc2c1-c1c(O)c(C)nn(C)c1=O [Compound 29]
Result: 90

I have 4 molecules here; please give me pest or weed control at 500 g/ha for each one.
1. Cc1nn(C)c(=O)c(-c2cccc3snc(C)c23)c1O [Compound 25]
2. CCOC(=O)Oc1c(C)nn(C)c(=O)c1-c1c(C)ccc2sccc12 [Compound 30]
3. Cc1cc2cccc(-c3c(O)c(C)nn(C)c3=O)c2o1 [Compound 12]
4. CC(=O)Oc1c(C)nn(C)c(=O)c1-c1c(C)ccc2cc(C)oc12 [Compound 11]

Result:
1: 70; 2: 90; 3: 80; 4: 100

The reported numbers originate from patent US10750743B2.
